biological target: Neutrophil elastase (Homo sapiens); test: Inhibitory concentration against human leukocyte elastase (HLE)
Sequence (P08246 whole entry): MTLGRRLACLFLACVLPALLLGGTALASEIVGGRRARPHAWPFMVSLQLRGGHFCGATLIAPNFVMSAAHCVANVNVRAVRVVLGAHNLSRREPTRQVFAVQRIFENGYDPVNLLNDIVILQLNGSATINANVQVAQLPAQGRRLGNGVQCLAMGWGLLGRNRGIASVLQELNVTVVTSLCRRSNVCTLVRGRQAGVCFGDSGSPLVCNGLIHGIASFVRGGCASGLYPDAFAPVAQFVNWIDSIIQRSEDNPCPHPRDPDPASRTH
MEASURE: pIC50
// field semantics: pIC50 = negative decimal log of concentration (mol/L)

Some compounds with recorded pIC50:
CHEMICAL_STRUCTURE	pIC50
Cc1cccc2nc(N[C@H](C)c3ccc(Br)cc3)oc(=O)c12	7.70
Cc1cccc2nc(N[C@@H](C)c3ccccc3)oc(=O)c12	7.36
Cc1c(N(C)C)ccc2nc(N[C@H](C)c3ccccc3)oc(=O)c12	5.49

Param item = Cc1cccc2nc(NC(C)C)oc(=O)c12 ; retrieve measured pIC50.
7.48

----------
biological target: Chymotrypsinogen B (Homo sapiens, UniProt P17538); assay: Inhibitory concentration against human chymotrypsin
Sequence (P17538 34-164 limits assumed, other chains not shown): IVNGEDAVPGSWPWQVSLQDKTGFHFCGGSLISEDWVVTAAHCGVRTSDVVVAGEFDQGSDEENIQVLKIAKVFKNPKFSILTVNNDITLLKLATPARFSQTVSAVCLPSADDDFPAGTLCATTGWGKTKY
Sequence (P17538 167-263 limits assumed, other chains not shown): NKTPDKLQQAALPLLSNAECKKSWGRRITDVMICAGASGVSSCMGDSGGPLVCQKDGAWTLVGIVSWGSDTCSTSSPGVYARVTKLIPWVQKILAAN
MEASURE: pIC50
# pIC50: negative log10 of molar concentration; output just the value

Worked cases, answers included:
CHEMICAL_STRUCTURE	pIC50
COc1ccc(S(=O)(=O)Nc2ccc3nc(N[C@H](C)c4ccccc4)oc(=O)c3c2C)cc1	5.44
Cc1cccc2nc(NC(C)C)oc(=O)c12	5.70
Cc1cccc2nc(N[C@H](C)c3ccccc3)oc(=O)c12	7.06

// switching to the query compound
Query (compound): Cc1c(NC(=O)CN(C)C)ccc2nc(N[C@H](C)c3ccccc3)oc(=O)c12 ; field requested: pIC50
5.59
